The reported measurements were obtained from PubChem BioAssay (NCI).

In this section, each of the compounds is paired with its reported growth.
System: IGROV1 ovarian
PROCEDURE SUMMARY: NCI-60 one-dose screen, 48 h (100 = growth as untreated, 0 = no growth, -100 = all killed)
MEASUREMENT SETUP: 10 µM unless noted
Compounds without any hit were thinned out: in the full panel of roughly 83,000, 20% have a hit.
Answer format: numeric, % implied, no suffix.

Recorded results for 3 compounds are shown here.
INSERT INTO measurements (compound, value_type, reading_unit, value) VALUES
  ('CNC(=S)NNC(=O)C1CC1', 'growth', '%', 118),
  ('C=C[C@@H]1C[C@H](O)Cc2ccccc2N1', 'growth', '%', 124),
  ('NC1N=C(SCC(=O)N2CCN(c3cc4c(cc3F)c(=O)c(C(=O)O)cn4C3CC3)CC2)NC(=O)/C1=C/c1ccc(Cl)cc1 (centres undefined)', 'growth', '%', 104);

Switching to the query record.
Looking up C=C1CCC2C(C)(CO)C(O)CCC2(C)C1C/C=C1/C(=O)OCC1O/C=C/c1ccccc1 (centres undefined) , I see its growth listed as 84.1

----------
Tested on: RXF 393 renal
PROCEDURE SUMMARY: NCI-60 one-dose screen, 48 h (100 = growth as untreated, 0 = no growth, -100 = all killed)
MEASUREMENT SETUP: 10 µM unless noted
The panel holds about 83,000 compounds, 20% with a hit somewhere; the sample as a whole holds those more often.
In this section, each of the compounds is paired with its reported growth.
Answer format: numeric, % implied, no suffix.

Recorded results for 6 compounds are shown here.
INSERT INTO results (compound, reading_unit, value) VALUES
  ('CC(=O)OC[C@]12CC[C@H]3[C@@H](C[C@H]4O[C@]45CC=CC(=O)[C@]35C)[C@]1(O)CC[C@@]2(O)[C@@](C)(O)C1CC(C)=C(C)C(=O)O1 (stereo not given in full)', '%', -62.8),
  ('COc1cc2c(c(OC)c1OC)-c1ccc(N)c(=O)cc1[C@@H](NC(C)=O)CC2', '%', -5.16),
  ('C=C1C(=O)O[C@H]2[C@H]1CC/C(Cn1cc(CNC(=O)c3cc4ccccc4[nH]3)nn1)=C\CC[C@@]1(C)O[C@@H]21', '%', 24.5),
  ('N#Cc1c(Nc2ccccc2)nc2n(c1=O)-c1ccccc1Sc1ccccc1-2', '%', 82.2),
  ('COc1ccc(-n2c(-c3ccccc3)c(-c3ccccc3)c3c(SCC(=O)N/N=C/c4ccc(Cl)cc4)ncnc32)cc1', '%', 97.3),
  ('COC(=O)c1cc(=O)nc(N/N=C/c2ccco2)s1', '%', 102);

Looking up COc1ccc2[nH]c(C(=O)OCc3ccc4c(Cl)cc(Cl)c(O)c4n3)cc2c1 , I see its growth listed as -93

Looking up O=C(O)C1CCCN1 (stereo not given) , I see its growth listed as 104

Looking up Cc1ccc(-c2csc(NC(=O)CCCCl)n2)cc1 , I see its growth listed as 105

Looking up COc1cc(-c2ncn(/C=C\C(=O)OC(C)C)n2)cc(C(F)(F)F)c1 , I see its growth listed as -41.1

----------
System: K-562 leukemia
PROCEDURE SUMMARY: NCI-60 one-dose screen, 48 h (100 = growth as untreated, 0 = no growth, -100 = all killed)
MEASUREMENT SETUP: 10 µM unless noted
About 83,000 compounds went through this panel and 20% of them were active in at least one assay; those are over-represented in the sample as a whole.
Please respond with met when measured growth is strictly beneath 80%, and with not met in all other cases.

Solved entries:
INSERT INTO results (molecule, category_label) VALUES
  ('O=C(Nc1ccncc1)C(=O)c1cn(S(=O)(=O)c2ccccc2F)c2ccccc12', 'met'),
  ('Fc1ccc(CNCCNc2ncnc3c2cnn3-c2ccccc2)cc1', 'not met');

Task item: API: query returns whether the molecule falls strictly under 80% in growth. Query: COc1ccc2c(c1)[nH]c(=O)c1c3cc(OC)ccc3cn21
Reply: met

Task item: API: query returns whether the molecule falls strictly under 80% in growth. Query: Cc1cc(C2=NNC(=O)Cc3cc4c(cc32)OCCO4)cc(C)c1N
Reply: met

Task item: API: query returns whether the molecule falls strictly under 80% in growth. Query: O=C(Nc1ccncc1)C(=O)c1cn(S(=O)(=O)c2ccc(Cl)cc2)c2ccccc12
Reply: met

Task item: API: query returns whether the molecule falls strictly under 80% in growth. Query: CCCCN(CCCC)C(=N)c1ccnc2ccccc12
Reply: not met

Task item: API: query returns whether the molecule falls strictly under 80% in growth. Query: COc1cccc(CC(C)=C(c2ccc(OCCN3CCCCC3)cc2)c2ccc(OCCN3CCCCC3)cc2)c1
Reply: met

Task item: API: query returns whether the molecule falls strictly under 80% in growth. Query: N#Cc1c(Nc2ccccc2)nc2n(c1=O)-c1ccccc1Sc1ccccc1-2
Reply: met

Task item: API: query returns whether the molecule falls strictly under 80% in growth. Query: O=C(C1=Cc2cc3ccccc3n2Cc2cnnn21)c1ccccc1
Reply: met

Task item: API: query returns whether the molecule falls strictly under 80% in growth. Query: Nc1nc(=O)c2ccccc2s1
Reply: not met

Task item: API: query returns whether the molecule falls strictly under 80% in growth. Query: CCOC(=O)c1c(/N=C2\SC(=O)/C(=C\C(=O)OC)N2NC)sc2c1CCN(C(=O)OCC)C2
Reply: not met

Task item: API: query returns whether the molecule falls strictly under 80% in growth. Query: O=[N+]([O-])c1ccc(Sc2ncccn2)c([N+](=O)[O-])c1
Reply: met

Task item: API: query returns whether the molecule falls strictly under 80% in growth. Query: COc1ccc(/C=N\NC(=O)CN2CCN(c3cc4c(cc3F)c(=O)c(C(=O)N/N=C/c3ccc(OC)c(OC)c3)cn4C3CC3)CC2)cc1OC
Reply: met

Task item: API: query returns whether the molecule falls strictly under 80% in growth. Query: Brc1ccc(-c2[nH]ncc2-c2c[nH]c3ccccc23)cc1
Reply: not met

Task item: API: query returns whether the molecule falls strictly under 80% in growth. Query: Cc1ccc(S(=O)(=O)c2nc(-c3ccccc3)oc2S(C)(=O)=O)cc1
Reply: met

Task item: API: query returns whether the molecule falls strictly under 80% in growth. Query: CCCCN(CCCC)C(=O)CC
Reply: not met

----------
In this section, each of the compounds is paired with its reported growth.
Test system: MDA-MB-435 melanoma
PROCEDURE SUMMARY: NCI-60 one-dose screen, 48 h (100 = growth as untreated, 0 = no growth, -100 = all killed)
MEASUREMENT SETUP: 10 µM unless noted
This is part of a sample that, as a whole, favours compounds with a hit. Of some 83,000 tested, about 20% had one in any assay.
Answer format: numeric, % implied, no suffix.

Recorded results for 6 compounds are shown here.
INSERT INTO results (compound, assay_system, value) VALUES
  ('Cc1cc(C2(c3cc(C)c(O)cc3C)OS(=O)(=O)c3ccccc32)c(C)cc1O', 'MDA-MB-435 melanoma', 116),
  ('NC1N=C(SCC(=O)N2CCN(c3cc4c(cc3F)c(=O)c(C(=O)O)cn4C3CC3)CC2)NC(=O)/C1=C/c1ccc(Cl)cc1 (stereo unspecified)', 'MDA-MB-435 melanoma', 105),
  ('COc1cc(-c2nn(-c3cccc(NC(=O)c4cccc(C(F)(F)F)c4)c3)cc2-c2ccncc2)ccc1Cl', 'MDA-MB-435 melanoma', -39.6),
  ('O=C(CCl)N(C1CCCCC1)C1CCCCC1', 'MDA-MB-435 melanoma', 106),
  ('O=C(Nc1cccc(-n2cc(-c3ccncc3)c(-c3ccc(Cl)c(O)c3)n2)c1)Nc1cccc(C(F)(F)F)c1', 'MDA-MB-435 melanoma', 15.6),
  ('C=C1CCC2C(C)(CO)C(O)CCC2(C)C1CC(NCc1ccccc1)C1=CCOC1=O (stereo unspecified)', 'MDA-MB-435 melanoma', 106);

Looking up COC(OC)c1ccccc1 , I see its growth listed as 102

Looking up COc1ccc(C2C=C(c3ccc(Cl)cc3)N=C3SC=C(C)N32)c(Br)c1 (stereo unspecified) , I see its growth listed as 9.2

Looking up Brc1ccc(-c2[nH]ncc2-c2c[nH]c3ccccc23)cc1 , I see its growth listed as 92.7

Looking up CCN(CC)CCCC(C)Nc1c2ccc(Cl)cc2nc2cc(OC)c(OC)cc12 (stereo unspecified) , I see its growth listed as -81.8

Looking up O=C(Nc1ccc(NCCN2CCOCC2)nc1)c1ccc([N+](=O)[O-])cc1 , I see its growth listed as 97.8

Looking up O=C(c1ccccc1)C1OC1c1ccc([N+](=O)[O-])cc1 (stereo unspecified) , I see its growth listed as 39

Looking up CCCCOc1ccc(/C=C2/SC(N3CCCC3)=NC2=O)cc1 , I see its growth listed as 95.6
